From: patent US10183950B2

A collection of molecules and their measured IC50
- assayed system: full-length human PKCι (Homo sapiens, UniProt P41743)
- Construct: Recombinant, full-length human PKCι expressed in Sf21 insect cells is also commercially available; purchased; host or cells: Sf21 insect cells
- procedure details: PKCι IC50 IMAP fluorescence polarisation assay, full-length enzyme
- Format: biochemical
- experimental conditions: full length PKCi at 15 μM ATP; read-out: IC50 in IMAP assay against full length PKCi

Example results:
Look up IC50 with full-length human PKCι (Homo sapiens, UniProt P41743) for this molecule: N[C@H](CNc1nc(-c2ccncc2F)nc2ccsc12)Cc1ccccc1 [compound 355]
1 to 10 µM

Look up IC50 with full-length human PKCι (Homo sapiens, UniProt P41743) for this molecule: O=C(Nc1cc(-c2nc(N[C@@H]3CCNC3)c3sccc3n2)ccn1)c1ccc(N2CCOCC2)cc1 [compound 621]
0.1 to 1 µM

Look up IC50 with full-length human PKCι (Homo sapiens, UniProt P41743) for this molecule: CC(C)C#Cc1csc2c(NC[C@@H](N)Cc3ccccc3)nc(-c3ccncc3)nc12 [compound 518]
0.1 to 1 µM

Look up IC50 with full-length human PKCι (Homo sapiens, UniProt P41743) for this molecule: CC(C)(C)c1sc2c(NC[C@@H](N)Cc3ccccc3)nc(-c3ccncc3)nc2c1-c1cccc(N)c1 [compound 444]
10 to 40 µM

Look up IC50 with full-length human PKCι (Homo sapiens, UniProt P41743) for this molecule: CC(C)C[C@H](N)CNc1nc(-c2ccncc2)nc2c(Br)csc12 [compound 346]
1 to 10 µM

More entries:
Look up IC50 with full-length human PKCι (Homo sapiens, UniProt P41743) for this molecule: N[C@H](CNc1nc(-c2ccncc2)nc2c(NC(=O)C3CCCCC3)csc12)Cc1ccccc1 [compound 474]
10 to 40 µM

Look up IC50 with full-length human PKCι (Homo sapiens, UniProt P41743) for this molecule: c1ccc(-c2ccc(Nc3cc(-c4nc(N[C@@H]5CCNC5)c5sccc5n4)ccn3)nc2)cc1 [compound 601]
0.1 to 1 µM

Look up IC50 with full-length human PKCι (Homo sapiens, UniProt P41743) for this molecule: CCOc1ccc(Cl)cc1-c1c(C)sc2c(NC[C@@H](N)Cc3ccccc3)nc(-c3ccncc3)nc12 [compound 463]
10 to 40 µM

* * *

- assayed system: kinase-domain human PKCι (Homo sapiens)
- Construct: Recombinant, kinase-domain human PKCι is expressed and purified in-house; made in house
- Sequence (P41743 254-522 limits assumed): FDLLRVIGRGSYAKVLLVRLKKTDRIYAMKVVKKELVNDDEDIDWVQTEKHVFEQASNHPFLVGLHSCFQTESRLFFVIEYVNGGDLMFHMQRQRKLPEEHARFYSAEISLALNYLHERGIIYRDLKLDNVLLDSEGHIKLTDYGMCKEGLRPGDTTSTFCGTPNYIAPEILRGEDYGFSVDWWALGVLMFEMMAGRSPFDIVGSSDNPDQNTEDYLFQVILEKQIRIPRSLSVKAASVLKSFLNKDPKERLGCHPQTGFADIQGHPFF
- procedure details: PKCι IC50 IMAP fluorescence polarisation assay, kinase-domain enzyme
- Type: biochemical
- experimental conditions: kinase domain PKCi at 2 μM ATP; read-out: IC50 in IMAP assay against kinase domain PKCi (Activity)
- Description: Assays are based on the ability of PKCι to phosphorylate a commercially available peptide substrate in vitro. […] Recombinant, full-length human PKCι expressed in Sf21 insect cells is also commercially available. Recombinant, kinase-domain human PKCι is expressed and purified in-house. The procedure below explains how dose response curves for inhibitors of PKCι are obtained. Compounds to be tested are dissolved in 100% DMSO. […]
readout: IC50

Example results:
Reported IC50, compound c1ccc(CCN2CCN(c3nc(-c4ccncc4)nc4sc5c(c34)CCCC5)CC2)cc1 [compound 132] : ____
10 to 40 µM

Reported IC50, compound CC(C)C[C@H](N)COc1nc(-c2ccncc2)nc2sc3c(c12)CCCC3 [compound 138] : ____
1 to 10 µM

Reported IC50, compound Clc1ccccc1CN1CCN(c2nc(-c3ccncc3)nc3sc4c(c23)CCCC4)CC1 [compound 123] : ____
10 to 40 µM

For the next question, use this compound.
Reported IC50, compound C[C@H](N)CNc1nc(-c2ccncc2F)nc2sc3c(c12)CCCC3 [compound 99] : ____
1 to 10 µM
